# Tested on: intracellular forms of T. cruzi (Y strain) in 3D H9C2
# Method Notes: Activity against T. cruzi (Y strain) infection of H9C2 spheroids (3D)
# Assay type: cell-based, Trypanosoma cruzi
# Setup Conditions: 10 µM, seven days of incubation, 95% confidence interval in brackets
Measured Metric: % of Death Rate by qPCR 3D

Give me % of Death Rate by qPCR 3D for each of these compounds, listed below.
1. Nc1ncnc2c1c(-c1ccc(Cl)c(Cl)c1)cn2[C@@H]1O[C@H](CO)C[C@H]1O [FH8513]
2. O=C(Cn1ccnc1[N+](=O)[O-])NCc1ccccc1 [Bz, Benznidazole, reference compound]
3. Nc1ncnc2c1c(-c1ccc(F)c(F)c1)cn2[C@@H]1O[C@H](CO)[C@@H](O)[C@H]1O [FH11706, 7-(3,4-Difluorophenyl)tubercidin]
4. Nc1ncnc2c1c(-c1ccc(Cl)c(F)c1)cn2[C@@H]1O[C@H](CO)[C@@H](O)[C@H]1O [FH10714, 7-(3-fluoro,4-chlorophenyl)tubercidin]

Result string:
1. 94 (90 to 98) %
2. 100%
3. 85 (79 to 91) %
4. 67 (38 to 96) %

----------
# System: H9C2 2D cultures
# Method Notes: Cardiotoxicity on H9C2 monolayers (2D), PrestoBlue
# Assay type: cell-based
# Setup Conditions: Rattus norvegicus, H9c2, 168 h, read-out: Cardiotoxic profile IC50 (µM) 2D
Measured Metric: IC50

These solved cases illustrate the format of a correct answer.
INSERT INTO measurements (molecule, assay_result) VALUES
  ('Nc1ncnc2c1c(-c1ccc(F)c(F)c1)cn2[C@@H]1O[C@H](CO)[C@@H](O)[C@H]1O', '47.7 µM'),
  ('O=C(Cn1ccnc1[N+](=O)[O-])NCc1ccccc1 [Bz, Benznidazole, reference compound]', '> 200 µM'),
  ('Nc1ncnc2c1c(-c1ccc(Cl)c(Cl)c1)cn2[C@@H]1O[C@H](CO)C[C@H]1O', '18.6 µM');

Turning now to a further molecule:
Field IC50 (entry Nc1ncnc2c1c(-c1ccc(Cl)c(F)c1)cn2[C@@H]1O[C@H](CO)[C@@H](O)[C@H]1O ) reads 41.8 µM

----------
# Target Or System: LmexNT1 (Leishmania mexicana)
# Sequence (E9AQB5 entry or part of it): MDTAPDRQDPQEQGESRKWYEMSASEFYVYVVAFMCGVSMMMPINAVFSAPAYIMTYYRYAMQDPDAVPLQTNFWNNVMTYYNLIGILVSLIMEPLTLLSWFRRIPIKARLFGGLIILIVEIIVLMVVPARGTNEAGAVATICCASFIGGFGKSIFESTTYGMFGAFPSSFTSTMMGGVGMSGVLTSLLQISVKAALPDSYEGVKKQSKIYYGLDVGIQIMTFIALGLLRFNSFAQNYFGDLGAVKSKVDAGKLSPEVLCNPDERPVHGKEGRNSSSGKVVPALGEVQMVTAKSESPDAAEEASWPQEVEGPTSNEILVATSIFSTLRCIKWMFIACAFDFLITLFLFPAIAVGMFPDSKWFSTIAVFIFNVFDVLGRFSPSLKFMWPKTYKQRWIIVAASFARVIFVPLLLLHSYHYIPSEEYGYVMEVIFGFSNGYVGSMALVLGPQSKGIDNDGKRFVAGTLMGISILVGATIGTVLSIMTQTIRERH
# Method Notes: Inhibition of [3H]-adenosine uptake by LmexNT1.1 expressed in L. mexicana promastigotes
# Format: biochemical
Task for the reader: assign each of the following compounds its reported Ki.
I'd appreciate it if you wrote the number followed by its unit.

Example compounds with recorded Ki:
INSERT INTO measurements (compound, measured_metric, assay_result) VALUES
  ('Nc1ncnc2c1c(-c1ccccc1)cn2[C@@H]1O[C@H](CO)[C@@H](O)[C@H]1O [TH1004]', 'Ki', '3.8 µM'),
  ('Nc1ncnc2c1ccn2[C@@H]1O[C@H](CO)[C@@H](O)[C@H]1O [Tubercidin, reference compound]', 'Ki', '5.8 µM');

The value of Ki measured for the compound Nc1ncnc2c1c(Cl)cn2[C@@H]1O[C@H](CO)[C@@H](O)[C@H]1O [FH3169] turned out to be 2.8 µM

----------
# System: H9C2 3D cultures
# Method Notes: Cardiotoxicity on H9C2 organoids (3D), PrestoBlue
# Assay type: cell-based, rat
# Setup Conditions: read-out: Cardiotoxic profile IC50 (µM) 3D; 3D H9C2, seven days of compound incubation; 95% confidence interval in brackets
Can you tell me IC50 for the items I'm about to list?
Answers are plain numbers, in µM.

INSERT INTO results (given_smiles, measured_metric, measure_unit, assay_result) VALUES
  ('Nc1ncnc2c1c(-c1ccc(Cl)c(F)c1)cn2[C@@H]1O[C@H](CO)[C@@H](O)[C@H]1O', 'IC50', 'µM', 181);

So the reported IC50 for Nc1ncnc2c1c(-c1ccc(Cl)c(Cl)c1)cn2[C@@H]1O[C@H](CO)C[C@H]1O , on H9C2 3D cultures, turned out to be 200
